Target: ZmADK3 R132A variant (Zea mays, UniProt A0A1D6E5Z5, R132A)
Sequence (A0A1D6E5Z5 entry or part of it R132A): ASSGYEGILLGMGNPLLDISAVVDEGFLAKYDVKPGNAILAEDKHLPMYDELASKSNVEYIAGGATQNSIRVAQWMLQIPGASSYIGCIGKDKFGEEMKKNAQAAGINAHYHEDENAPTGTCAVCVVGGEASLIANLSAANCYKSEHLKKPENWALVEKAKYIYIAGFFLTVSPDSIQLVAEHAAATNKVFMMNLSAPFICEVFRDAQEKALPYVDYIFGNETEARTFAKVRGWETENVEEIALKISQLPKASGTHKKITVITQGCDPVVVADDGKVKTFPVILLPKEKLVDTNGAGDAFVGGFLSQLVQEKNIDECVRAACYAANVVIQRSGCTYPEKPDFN
Assay: Binding affinity by MST
Conditions: R132A; MST; read-out: KD ATP
reported property: Kd (mM)
Write down the numeric answer in mM and omit the unit.

Can you share its Kd? I mean this compound: "Nc1ncnc2c1ncn2[C@@H]1O[C@H](COP(=O)(O)OP(=O)(O)OP(=O)(O)O)[C@@H](O)[C@H]1O" 8.5

====

Target: ZmADK3 N295A variant (Zea mays, UniProt A0A1D6E5Z5, N295A)
Sequence (A0A1D6E5Z5 entry or part of it N295A): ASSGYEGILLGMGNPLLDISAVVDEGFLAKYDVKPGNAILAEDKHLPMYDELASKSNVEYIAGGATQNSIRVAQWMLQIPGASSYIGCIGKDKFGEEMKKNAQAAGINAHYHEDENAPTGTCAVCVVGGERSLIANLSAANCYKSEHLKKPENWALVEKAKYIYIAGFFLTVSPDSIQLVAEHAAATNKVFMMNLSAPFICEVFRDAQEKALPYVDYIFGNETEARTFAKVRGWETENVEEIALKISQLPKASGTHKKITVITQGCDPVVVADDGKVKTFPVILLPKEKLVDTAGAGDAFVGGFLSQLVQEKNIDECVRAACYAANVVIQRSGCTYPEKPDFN
Test: Binding affinity by MST
reported property: Kd (µM)
Write down the numeric answer in µM and omit the unit.

Can you share its Kd? I mean this compound: Nc1ncnc2c1ncn2[C@@H]1O[C@H](CO)[C@@H](O)[C@H]1O [Ado, adenosine] 274
